test: Inhibition of Streptococcus pneumoniae sialidase NanC using 4-methylumbelliferyl-alpha-D-N-acetylneuraminic acid as substrate after 60 mins by FRET assay; conditions: read-out: IC50
Criterion: IC50 strictly less than 100 µM. Met: Y. Not met: N.

| molecule | label |
| --- | --- |
| O=C(CCCCCCCCc1ccc(O)c(O)c1)c1c(O)cccc1O | Y |
| C/C=C/c1cc(OC)c2c(c1)[C@H](C)[C@@H](c1ccc3c(c1)OCO3)O2 [(-)-LICARIN B] | Y |
| C/C=C/c1cc(OC)c2c(c1)[C@H](C)[C@@H](c1cc(OC)c3c(c1)OCO3)O2 | N |
| C/C=C/c1cc(OC)c2c(c1)[C@H](C)[C@@H](c1ccc(O)c(OC)c1)O2 | N |

---

experiment: Inhibition of Streptococcus pneumoniae sialidase NanB using 4-methylumbelliferyl-alpha-D-N-acetylneuraminic acid as substrate after 60 mins by FRET assay; details: read-out: IC50
property-name: log10 IC50 (log10 of the value in µM)

| compound | log10 IC50 |
| --- | --- |
| C=CCc1cc(OC)c(O)c(OC)c1 [METHOXYEUGENOL] | 1.89 |
| C=CCc1cc(OC)c(O[C@@H](C)[C@H](O)c2ccc(O)c(OC)c2)c(OC)c1 | 2.36 |
| COc1cc([C@H]2O[C@@H](c3ccc(O)c(OC)c3)[C@@H](C)[C@@H]2C)ccc1O | 2.52 |
| C/C=C/c1cc(OC)c2c(c1)[C@H](C)[C@@H](c1ccc3c(c1)OCO3)O2 [(-)-LICARIN B] | 1.15 |
| COc1cc([C@@H](O)[C@@H](C)Oc2c(OC)cc(/C=C/CO)cc2OC)ccc1O | 1.32 |
| C/C=C/c1cc(OC)c2c(c1)[C@H](C)[C@@H](c1cc(OC)c3c(c1)OCO3)O2 | 1.96 |
| C=CCc1cc(O)c(OC)c(O)c1 | 1.43 |
| C/C=C/c1cc(OC)c2c(c1)[C@H](C)[C@@H](c1ccc(O)c(OC)c1)O2 [LICARIN A] | 1.98 |
| O=C(CCCCCCCCc1ccc(O)c(O)c1)c1c(O)cccc1O [MALABARICONE C] | 0.56 |
| O=C(CCCCCCCCc1ccc(O)cc1)c1c(O)cccc1O [MALABARICONE B] | 0.76 |
